EXPERIMENT_DESCRIPTION: folding stability dG unfold from chymotrypsin proteolysis; higher = more stable
REPORTED_PROPERTY: folding stability dG unfold (kcal/mol)
Number only, in kcal/mol; omit the unit.

Some solved cases for reference:
[
  {
    "QUERY_SEQUENCE": "SAGGSAGGSAGGLKPGQKVAVFVKVKVKLYRDPATNELTEEVEIEDVFVVDAETKELLLSAGGSAGGSAGGS [r10_248_TrROS_Hall]",
    "OBS_VALUE": 2.64
  },
  {
    "QUERY_SEQUENCE": "SAGGSAGGSAGGSMKTTTLTVKPEELEEVKKKLTPPDKTVTIKSVTKDPKEDLVTLTVESAGGSAGGSAGGS [r10_1030_JUSTAS]",
    "OBS_VALUE": -0.517
  },
  {
    "QUERY_SEQUENCE": "SAGGSAGGSAGGKPKVIEIEITDKNGKKRKIKLIEKDGYVYLYDEKTGKLVKKFKLKDLSAGGSAGGSAGGS [r10_589_TrROS_Hall]",
    "OBS_VALUE": 3.92
  },
  {
    "QUERY_SEQUENCE": "SAGGKKVIITKVETNKNGKKTYTVTLYYKDKKTNEWKKVAEFTFESKEEAENAAKELAKKLNLKIIPSAGGS [r16_512_TrROS_Hall]",
    "OBS_VALUE": 5
  },
  {
    "QUERY_SEQUENCE": "SAGGSAGGSAGEPVEVTPLSTETVPDSDTTVTYYKVTYPGGKEAIRTVYSDGTETTTPLPSAGGSAGGSAGG [r11_637_JUSTAS]",
    "OBS_VALUE": 1.02
  },
  {
    "QUERY_SEQUENCE": "SAGMSMSVSVTKDPNSNSITIKVTMPVEPDAVLDLPIKVEVPEKEYEMTVEVTLSPDGLASMTGTITLPSAG [r5_596_JUSTAS]",
    "OBS_VALUE": 2.04
  },
  {
    "QUERY_SEQUENCE": "SAGGSAAVTITSVPPDGTIRATATNPTNGETVTITFSPETSPEEAVAAIQKELGGPVPVTAVTPAGSAGGSA [r15_544_JUSTAS]",
    "OBS_VALUE": 1.57
  },
  {
    "QUERY_SEQUENCE": "SANTRSIPFPGSADDIVDEIKNLIDANPDVKIRIQPMDGEEYEIDIEGIEKIKVERMPDGWYMITVELPSAG [r14_807_TrROS]",
    "OBS_VALUE": 1.63
  },
  {
    "QUERY_SEQUENCE": "SAGGMYEIVDLLSVEPDPETGALTRTFLLRDPDSDRFLVAEVRIDPENPDRVEIRLYDEDGNLIAEFPSAGG [r13_658_TrMRF]",
    "OBS_VALUE": 4.15
  },
  {
    "QUERY_SEQUENCE": "SAGGSAGIAKKNNLTLKVTVEKKGDKLLVTVEITYPDGTKKTITIELNIKLVPEVPPVHPDEPGFGSAGGSA [r15_843_TrMRF]",
    "OBS_VALUE": 2.83
  }
]

[Q] Report folding stability dG unfold for SAMEIEIEPLEKEELLKLPGAEIRLFYFPDRVLAEILLPDGTPFFVEFDPSLKPEEVLEKLLKLLEELGSAG [r14_618_TrMRF] please.
[A] 4.29

[Q] Reported folding stability dG unfold, sequence SAGGSKWIPVSIWFPKGMTPEKVEEIARELVEAGYRIENIEVEREPDPNGREWYRVDITFRPPGDLSAGGSA [r2_442_TrROS] : ____
[A] 3.01

[Q] Item SAGGSAGGQEEEAEALAKEVEAPAREALPGTEVTVTVTVTRREDGSLEVDVTIEGDFALPAALLSAGGSAGG [r6_999_JUSTAS] has what recorded folding stability dG unfold?
[A] 0.636

[Q] # get_value(readout='folding stability dG unfold', item= SAGGVITAEQLRDLVKTLPPDYTIRVKVYYSTSTEEYTITPDNPIKFPPNAPTETITRIEVVEISPDSAGGS [r16_97_TrMRF] )
[A] 4.43

---

EXPERIMENT_DESCRIPTION: folding stability dG unfold from chymotrypsin proteolysis; higher = more stable
// reported folding stability dG unfold per item
Write the value in kJ/mol as a bare number.

Sample records with folding stability dG unfold:
[
  {
    "QUERY_SEQUENCE": "SAGGSAGGMKKYKMTITFKTPDGTPVKEKTIYFNSEEEAKKAAEEIKKKELEPDTPVTVSKEPDSAGGSAGG [r6_286_JUSTAS]",
    "QUANTITY_UNIT": "kJ/mol",
    "folding stability dG unfold": 4.74
  },
  {
    "QUERY_SEQUENCE": "SAGGSAGGMPVEIEILTPDNLLPTFTIPDPEEAEKIKSVEVFGDRFIKITLGDKEIVIEVYPDNSAGGSAGG [r6_206_TrMRF]",
    "QUANTITY_UNIT": "kJ/mol",
    "folding stability dG unfold": 2.34
  },
  {
    "QUERY_SEQUENCE": "SAGGSAGGSAPPYKYVQIELWIPGPIEEIADELQDNFGIRSIDVKRDPENGWVRADIYFQFPSAGGSAGGSA [r18_275_TrROS]",
    "QUANTITY_UNIT": "kJ/mol",
    "folding stability dG unfold": 10.2
  },
  {
    "QUERY_SEQUENCE": "SAGAMLTLELTVEADSPEEAIERAKEIAKELIKKEYPELSKNTKIEKITAEPTPGPEVKVTITIKIDPGSAG [r5_320_JUSTAS]",
    "QUANTITY_UNIT": "kJ/mol",
    "folding stability dG unfold": 15.1
  },
  {
    "QUERY_SEQUENCE": "SAGGSAGGSAGMTVPPELSVTITRSPEGSLRVESPVPDRELTIPPDVPLTVSPDNVVTVASAGGSAGGSAGG [r17_49_JUSTAS]",
    "QUANTITY_UNIT": "kJ/mol",
    "folding stability dG unfold": 3.28
  },
  {
    "QUERY_SEQUENCE": "SAGGSAMIKTSYDPNGKTIYTIPETGAVITVDPSTGKVTVEVDPESQANNPLPEEEVKKLAEEVLKSAGGSA [r15_735_JUSTAS]",
    "QUANTITY_UNIT": "kJ/mol",
    "folding stability dG unfold": 5.62
  },
  {
    "QUERY_SEQUENCE": "SAGGDKDNKPPIPTKTITFMLPYDSPEDAKDYAEEIARELFQEEGIPIKVTVQYNPESGWVWVTITIYSAGG [r13_517_TrROS]",
    "QUANTITY_UNIT": "kJ/mol",
    "folding stability dG unfold": 19.1
  },
  {
    "QUERY_SEQUENCE": "SAGGSSLTTPDGVKVEVYENPENNTIYVFEKKPDGTYTLKTLTKEGDKVTEVSTKTIKSNEKEKLLSAGGSA [r2_336_JUSTAS]",
    "QUANTITY_UNIT": "kJ/mol",
    "folding stability dG unfold": 7.58
  }
]

[Q] What value of folding stability dG unfold has been recorded for this entry: SAGGSAGGSLRLRVTFTVTVTFLDGNRLRPAKVEITVEIELEPIPPELLRPRPLPGDKLEYDLSAGGSAGGS [r12_1031_TrMRF]
[A] 13.7

[Q] Look up folding stability dG unfold for this sequence: SAGGSEAIKEALELAKENPGKTVEVEIKNEDGSIYKIKIEVKEGKVVKVEVEKVKKEEVLSEEEKKSAGGSA [r2_263_TrROS_Hall]
[A] 10.4

[Q] For the sequence SAGGSAGGSGSMLPITTVTPTPDGVWKITYELPDGSTRTITVPPDDLSLSGPPSSSGSSAALASAGGSAGGS [r20_194_JUSTAS] , what folding stability dG unfold is on record?
[A] 0.171

[Q] Report folding stability dG unfold for SAGMTIIKIEFPDGSKATVDPTNPSTMTITDPNGNTTVLNLTGVEEAKKQLIETLKKETGLPVKKVEVESAG [r5_119_JUSTAS] please.
[A] 5.79

[Q] Please report the recorded folding stability dG unfold for SAGGSAGGSAAPVPPDRTLTVYRDPNTDKYTIRTPDGSVTVSPITPEELRAAGAPVVYLGPESAGGSAGGSA [r18_125_JUSTAS] .
[A] -0.363

[Q] Which value of folding stability dG unfold has been reported for SAGGSAGGSAGTIKVNGKTVTITKNKKTGKYTITVTLKNGEKKTFVFPSKEDVEEALKALSAGGSAGGSAGG [r11_238_TrROS_Hall] in the records?
[A] 17.3

---

EXPERIMENT_DESCRIPTION: folding stability dG unfold from chymotrypsin proteolysis; higher = more stable
The sequences listed here are annotated with their folding stability dG unfold.

A selection of reference data follows.
[
  {
    "QUERY_SEQUENCE": "SAGGSAGGSAPNMDWVMIPIRVPPGEPPKVKITFPDGPTREFDPGRWVWIWFPPGDPMKIEPESAGGSAGGS [r12_553_TrROS]",
    "folding stability dG unfold": "1.87 kcal/mol"
  },
  {
    "QUERY_SEQUENCE": "SAGDSIEIMVMVKTPEEAKKLADEIAQILPGNGLNIEITIMPMEELMKMFMEMTKPDPDGEYRRVRMFSAGG [r19_187_TrROS]",
    "folding stability dG unfold": "1.37 kcal/mol"
  }
]

[Q] Item SAGGSAGGSAGGAEELAKELAEKLGLEKKKVLIKLPNGKVVEVTIEDLKKLNLKNAEIVPSAGGSAGGSAGG [r7_863_TrROS_Hall] has what recorded folding stability dG unfold?
[A] 0.492 kcal/mol

[Q] Looking for the measured folding stability dG unfold of SAGGSAGGSAGKLYIIRIKGKKIILSEDEVEKLKKKYPNAEIIPFKSKEDAEKALKKLKESAGGSAGGSAGG [r11_60_TrROS_Hall] , can you help?
[A] 2.75 kcal/mol
